Target: UniProtKB P81908
Sequence (P81908 whole entry): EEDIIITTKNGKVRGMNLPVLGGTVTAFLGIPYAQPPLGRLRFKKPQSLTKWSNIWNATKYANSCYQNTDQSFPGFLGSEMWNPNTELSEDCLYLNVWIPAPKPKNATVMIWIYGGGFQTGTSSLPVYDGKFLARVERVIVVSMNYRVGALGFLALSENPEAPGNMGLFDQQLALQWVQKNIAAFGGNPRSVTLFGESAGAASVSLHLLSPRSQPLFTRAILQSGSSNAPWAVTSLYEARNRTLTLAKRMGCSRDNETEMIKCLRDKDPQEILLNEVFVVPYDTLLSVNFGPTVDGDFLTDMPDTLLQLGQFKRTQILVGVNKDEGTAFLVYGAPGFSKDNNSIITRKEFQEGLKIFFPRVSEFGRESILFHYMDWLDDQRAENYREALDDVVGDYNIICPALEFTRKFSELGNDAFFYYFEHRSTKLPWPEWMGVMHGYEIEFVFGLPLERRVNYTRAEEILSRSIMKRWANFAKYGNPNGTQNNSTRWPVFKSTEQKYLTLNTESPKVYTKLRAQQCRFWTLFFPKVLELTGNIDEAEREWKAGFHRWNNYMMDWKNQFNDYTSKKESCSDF
Test: Inhibition of equine serum BChE using butyrylthiocholine iodide as substrate preincubated for 10 mins followed by substrate addition by Ellman's method
pIC50: −log10 of the molar value.
Is pIC50 at least 5? Then 1. If not, -1.

Worked examples, 4 compounds total:
compound="CC(C)(C)c1cc(CN(Cc2ccccc2)C2=NCC(CI)S2)cc(C(C)(C)C)c1O.I (stereo unspecified)" target_desc="UniProtKB P81908" classification=-1
compound="Clc1ccccc1CN(Cc1ccccc1)C1=NCC(CI)S1.I (stereo unspecified)" target_desc="UniProtKB P81908" classification=-1
compound="Br.CC(c1ccccc1)N(Cc1ccccc1)C1=NCC(CBr)S1 (stereo unspecified)" target_desc="UniProtKB P81908" classification=-1
compound="Br.Clc1ccccc1CN(Cc1cccnc1)C1=NCC(CBr)S1 (stereo unspecified)" target_desc="UniProtKB P81908" classification=-1

Query :: Hi team, for I.ICC1CN=C(N(Cc2ccccc2)Cc2ccco2)S1 (stereo unspecified) , is the recorded pIC50 at or above 5?
Result :: -1

Query :: Say whether Clc1ccc(CN(Cc2cccnc2)C2=NCC(CI)S2)cc1.I (stereo unspecified) shows pIC50 of 5 or more.
Result :: 1

###

# IC50 listing for each entry below
Target: Liver carboxylesterase (Sus scrofa)
Sequence (Q29550 whole entry): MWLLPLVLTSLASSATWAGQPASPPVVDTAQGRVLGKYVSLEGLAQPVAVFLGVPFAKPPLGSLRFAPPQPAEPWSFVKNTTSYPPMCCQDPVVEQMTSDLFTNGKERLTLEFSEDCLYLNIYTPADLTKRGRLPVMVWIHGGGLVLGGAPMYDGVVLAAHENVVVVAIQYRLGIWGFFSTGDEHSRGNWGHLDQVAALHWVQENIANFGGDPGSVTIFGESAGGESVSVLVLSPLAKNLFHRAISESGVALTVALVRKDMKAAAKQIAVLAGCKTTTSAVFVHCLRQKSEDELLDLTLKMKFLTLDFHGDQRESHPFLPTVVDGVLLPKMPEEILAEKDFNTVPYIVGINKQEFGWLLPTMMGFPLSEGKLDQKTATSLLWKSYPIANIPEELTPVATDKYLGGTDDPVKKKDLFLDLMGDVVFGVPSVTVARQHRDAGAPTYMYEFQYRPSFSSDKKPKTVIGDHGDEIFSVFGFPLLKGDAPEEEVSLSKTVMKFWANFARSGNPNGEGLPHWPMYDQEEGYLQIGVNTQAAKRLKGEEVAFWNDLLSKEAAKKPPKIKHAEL
Assay: Inhibition of porcine liver carboxylesterase using 4-nitrophenol acetate as substrate by spectrophotometric analysis
Details: read-out: IC50
A number alone suffices; assume µM.

compound="Br.COc1ccc(CN(Cc2ccccc2)C2=NCC(CBr)S2)cc1 (stereo not drawn)" value_measured=4.9

Query :: Need IC50, item CC(C)(C)c1ccc(CN(Cc2ccccc2)C2=NCC(CI)S2)cc1.I (stereo not drawn)
Result :: 0.22

Query :: Query: IC50; subject: Br.Fc1ccc(CN(Cc2ccccc2)C2=NCC(CBr)S2)cc1 (stereo not drawn)
Result :: 40

###

Below: a set of entries, each annotated with reported pIC50.
Molecular target: Liver carboxylesterase (Sus scrofa, UniProt Q29550)
Sequence (Q29550 whole entry): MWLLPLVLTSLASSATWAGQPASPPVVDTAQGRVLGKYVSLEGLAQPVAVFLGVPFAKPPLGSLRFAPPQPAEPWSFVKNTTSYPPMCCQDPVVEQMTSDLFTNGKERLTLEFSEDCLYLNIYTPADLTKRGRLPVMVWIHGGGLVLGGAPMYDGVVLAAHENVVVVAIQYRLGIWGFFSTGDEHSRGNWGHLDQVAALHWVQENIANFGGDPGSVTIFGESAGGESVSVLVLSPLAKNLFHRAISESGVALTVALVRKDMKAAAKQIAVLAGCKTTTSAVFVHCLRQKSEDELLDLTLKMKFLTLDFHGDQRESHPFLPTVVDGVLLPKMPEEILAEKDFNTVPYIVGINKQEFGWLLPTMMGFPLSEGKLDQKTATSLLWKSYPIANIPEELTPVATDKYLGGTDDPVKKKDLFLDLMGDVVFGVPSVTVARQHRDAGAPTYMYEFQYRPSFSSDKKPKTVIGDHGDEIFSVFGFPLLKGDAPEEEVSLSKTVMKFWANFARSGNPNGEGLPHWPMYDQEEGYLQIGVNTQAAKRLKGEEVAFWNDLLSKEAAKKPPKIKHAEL
Experiment: Inhibition of porcine liver carboxylesterase using 4-nitrophenol acetate as substrate by spectrophotometric analysis
Settings: read-out: IC50
pIC50: −log10 of the molar value.

molecule="Br.CC(c1ccccc1)N(Cc1ccccc1)C1=NCC(CBr)S1 (stereo not drawn)" target_desc="Liver carboxylesterase (Sus scrofa, UniProt Q29550)" assay_endpoint=pIC50 value_measured="< 4.00"
molecule="Br.Clc1ccccc1CN(Cc1cccnc1)C1=NCC(CBr)S1 (stereo not drawn)" target_desc="Liver carboxylesterase (Sus scrofa, UniProt Q29550)" assay_endpoint=pIC50 value_measured="< 4.00"

Query :: For the molecule COc1ccc(CN(Cc2ccccc2)C2=NCC(CI)S2)cc1OC (stereo not drawn) , what pIC50 is on record?
Result :: < 4.00
